Where do these numbers come from? They come from the Deep4Chem optical property database.

photoluminescence quantum yield for assorted compounds
# run-description: photoluminescence quantum yield (fraction); solvent given as SMILES
# assay-context: in CN(C)C=O
Just the number.

Output photoluminescence quantum yield of `CCCCCN(c1ccccc1)c1ccc2c(c1)C(CC)(CC)c1cc(/C=C/c3ccc(/C=C(\C#N)C(=O)O)s3)ccc1-2` 0.651

Further cases:
Output photoluminescence quantum yield of `CN(C)CCNCc1c2ccccc2cc2ccccc12` 0.00064

Output photoluminescence quantum yield of `Brc1ccc2[nH]c(-c3ccc(-c4ccc(-c5ccc(-c6nc7cc(Br)ccc7[nH]6)cc5)cc4)cc3)nc2c1` 0.42

Output photoluminescence quantum yield of `CC1=CC(C)=[N+]2C1=Cc1c3ccccc3c(C#Cc3cccs3)n1[B-]2(F)F` 0.4

Output photoluminescence quantum yield of `COc1cc2c(cc1/C=C/C(=C(C#N)C#N)c1ccccc1)c1ccccc1n2C` 0.022

Output photoluminescence quantum yield of `Cc1ccc2nc(-c3cccc4nc(C)[nH]c(=O)c34)oc2c1` 0.076

Output photoluminescence quantum yield of `Cn1cc(/C=C/C(=O)c2ccccc2)c2ccccc21` 0.245

----------
photoluminescence quantum yield for assorted molecules
# run-description: photoluminescence quantum yield (fraction); solvent given as SMILES
# assay-context: in Cc1ccccc1
Just the number.

Consider the worked cases shown below.
Output photoluminescence quantum yield of `COc1ccc(C2=C(Br)C(c3ccccc3)=[N+]3C2=Nc2c(-c4ccc(OC)cc4)c(Br)c(-c4ccccc4)n2[B-]3(F)F)cc1` 0.01

Output photoluminescence quantum yield of `CN(C)c1ccc(/C=C/c2nc3ccc(N(C)C)cc3oc2=O)cc1` 0.57

Output photoluminescence quantum yield of `O=[N+]([O-])c1ccc([N+]2=Cc3ccc4c5c(ccc4c3O[B-]2(c2c(F)c(F)c(F)c(F)c2F)c2c(F)c(F)c(F)c(F)c2F)C=[N+](c2ccc([N+](=O)[O-])cc2)[B-](c2c(F)c(F)c(F)c(F)c2F)(c2c(F)c(F)c(F)c(F)c2F)O5)cc1` 0.83

Could you now look at the following molecule, please?
Output photoluminescence quantum yield of `C(=C\c1ccc(-n2c3ccccc3c3ccccc32)cc1)/c1ccc(-c2ccc(/C=C/c3ccc(-n4c5ccccc5c5ccccc54)cc3)cc2)cc1` 0.89

----------
# run-description: photoluminescence quantum yield (fraction); solvent given as SMILES
# assay-context: in O
Consider the reported photoluminescence quantum yield of an entry and match it to a band in class A = under 0.03, class B = from 0.03 up to 0.3, class C = 0.3 and over

Worked cases, answers included:
Textbook exercise: identify the category of the compound given here, `N#Cc1coc2ccccc2c1=O` , according to its measured value. class A

Textbook exercise: identify the category of the compound given here, `CC(=O)OC[C@@H]1O[C@H](N2C=CC3=Nc4nc(C)[n+](C)cc4CN3C2=O)[C@@H](O)[C@H]1O` , according to its measured value. class B

Further cases:
Textbook exercise: identify the category of the compound given here, `CCOC(=O)c1ccccc1-c1c2ccc(=[N+](CC)CC)cc-2oc2cc(N(CC)CC)ccc12` , according to its measured value. class C

Textbook exercise: identify the category of the compound given here, `O=C([O-])c1c(Cl)c(Cl)c(Cl)c(Cl)c1-c1c2cc(I)c(=O)c(I)c-2oc2c(I)c([O-])c(I)cc12` , according to its measured value. class A

Textbook exercise: identify the category of the compound given here, `CCN(CC)c1ccc2c(-c3ccc(S(=O)(=O)O)cc3S(=O)(=O)[O-])c3ccc(=[N+](CC)CC)cc-3oc2c1` , according to its measured value. class C

Textbook exercise: identify the category of the compound given here, `CN(C)c1ccc2c(c1)C(C)(C)C1=CC(=[N+](C)C)C=CC1=C2C#Cc1ccccc1` , according to its measured value. class B

Textbook exercise: identify the category of the compound given here, `O=S(=O)(/N=c1\oc2cccc3c4c(-c5ccccc5)oc5cccc(c(c1-c1ccccc1)c23)c54)C(F)(F)F` , according to its measured value. class B
